- System: Vero
- MEASUREMENT DESCRIPTION: Cytotoxicity against african green monkey Vero cells after 48 hrs by MTT assay
- Assay type: cell-based
- CONDITION INFO: Chlorocebus sabaeus
pIC50: −log10 of the molar value.
Output yes (1) for pIC50 not less than 6; output no (0) otherwise.

Answered cases to consult:
CC(C)=CC[C@H](OC(=O)C=C(C)C)C1=CC(=O)c2c(O)ccc(O)c2C1=O ... yes (1)
COc1ccc(O)c2c1C(=O)C=C([C@H](CC=C(C)C)OC(C)=O)C2=O ... yes (1)

Continue with the compound presented below.
Ask: Textbook exercise: given the entry COc1ccc(O)c2c1C(=O)C(CCC=C(C)C)=CC2=O , state whether its pIC50 is greater than or equal to 6.
Result: no (0)

---

- System: AU565
- MEASUREMENT DESCRIPTION: Cytotoxicity against human AU565 cells after 48 hrs by MTT assay
- Assay type: functional, cell-based
- CONDITION INFO: AU565, 48 h
VALUE KIND: pIC50
Scale for pIC50: -log10 of concentration given in mol/L; no unit attached.

COc1ccc(O)c2c1C(=O)C=C(CCC=C(C)C)C2=O ... 6.06

Ask: Recorded pIC50 of COc1ccc(O)c2c1C(=O)C(CCC=C(C)C)=CC2=O , please.
Result: 5.15

Ask: Recorded pIC50 of CC(C)=CC[C@H](O)C1=CC(=O)c2c(O)ccc(O)c2C1=O , please.
Result: 6.05

Ask: Recorded pIC50 of COc1ccc(O)c2c1C(=O)C=C([C@H](CC=C(C)C)OC(=O)C=C(C)C)C2=O , please.
Result: 6.12

Ask: Recorded pIC50 of COc1ccc(O)c2c1C(=O)C=C([C@H](CC=C(C)C)OC(C)=O)C2=O , please.
Result: 6.23

Ask: Recorded pIC50 of CC(C)=CCCC1=CC(=O)c2c(O)ccc(O)c2C1=O , please.
Result: 6.04

Ask: Recorded pIC50 of CC(=O)O[C@@H](CC=C(C)C)C1=CC(=O)c2c(O)ccc(O)c2C1=O , please.
Result: 6.06

Ask: Recorded pIC50 of CC(C)=CC[C@H](OC(=O)C=C(C)C)C1=CC(=O)c2c(O)ccc(O)c2C1=O , please.
Result: 6.21

---

- MEASUREMENT DESCRIPTION: Cytotoxicity against human Hep3B cells after 48 hrs by MTT assay
- Type: functional, cell-based, Hep 3B2
pIC50: −log10 of the molar value.
Output rule met for pIC50 not less than 5; output rule not met otherwise.

CC(C)=CC[C@H](O)C1=CC(=O)c2c(O)ccc(O)c2C1=O ... rule met

Ask: Textbook exercise: given the entry COc1ccc(O)c2c1C(=O)C(CCC=C(C)C)=CC2=O , state whether its pIC50 is greater than or equal to 5.
Result: rule not met

Ask: Textbook exercise: given the entry CC(C)=CCCC1=CC(=O)c2c(O)ccc(O)c2C1=O , state whether its pIC50 is greater than or equal to 5.
Result: rule met

Ask: Textbook exercise: given the entry CC(=O)O[C@@H](CC=C(C)C)C1=CC(=O)c2c(O)ccc(O)c2C1=O , state whether its pIC50 is greater than or equal to 5.
Result: rule met

Ask: Textbook exercise: given the entry COc1ccc(O)c2c1C(=O)C=C(CCC=C(C)C)C2=O , state whether its pIC50 is greater than or equal to 5.
Result: rule not met

Ask: Textbook exercise: given the entry CC(C)=CC[C@H](OC(=O)C=C(C)C)C1=CC(=O)c2c(O)ccc(O)c2C1=O , state whether its pIC50 is greater than or equal to 5.
Result: rule met

---

pIC50 by entry:
- Tested on: PC-3
- MEASUREMENT DESCRIPTION: Cytotoxicity against human PC3 cells after 48 hrs by MTT assay
- Format: functional, cell-based
- CONDITION INFO: PC-3, 48 h
Scale for pIC50: -log10 of concentration given in mol/L; no unit attached.

Some solved cases for reference:
COc1ccc(O)c2c1C(=O)C=C(CCC=C(C)C)C2=O ... 5.17
CC(=O)O[C@@H](CC=C(C)C)C1=CC(=O)c2c(O)ccc(O)c2C1=O [ACETYLALKANNIN] ... 4.96

Ask: Recorded pIC50 of CC(C)=CC[C@H](O)C1=CC(=O)c2c(O)ccc(O)c2C1=O [ALKANNIN] , please.
Result: 5.49

Ask: Recorded pIC50 of COc1cc([C@@H]2c3cc4c(cc3[C@@H](O[C@@H]3O[C@@H]5CO[C@@H](C)O[C@H]5[C@H](O)[C@H]3O)[C@H]3COC(=O)[C@H]23)OCO4)cc(OC)c1O [ETOPOSIDE] , please.
Result: 4.16

Ask: Recorded pIC50 of CC(C)=CC[C@H](OC(=O)C=C(C)C)C1=CC(=O)c2c(O)ccc(O)c2C1=O , please.
Result: 5.96

Ask: Recorded pIC50 of COc1ccc(O)c2c1C(=O)C=C([C@H](CC=C(C)C)OC(C)=O)C2=O , please.
Result: 6.11

---

IC50 by entry:
- Tested on: PC-3
- MEASUREMENT DESCRIPTION: Cytotoxicity against human PC3 cells after 48 hrs by MTT assay
- Type: functional, cell-based
- CONDITION INFO: PC-3, 48 h
State just the number; it will be interpreted in µM.

COc1ccc(O)c2c1C(=O)C=C([C@H](CC=C(C)C)OC(=O)C=C(C)C)C2=O ... 0.42
COc1ccc(O)c2c1C(=O)C(CCC=C(C)C)=CC2=O ... 7.48
CC(C)=CCCC1=CC(=O)c2c(O)ccc(O)c2C1=O ... 4.29

Ask: Recorded IC50 of COc1cccc2c1C(=O)c1c(O)c3c(c(O)c1C2=O)C[C@@](O)(C(=O)CO)C[C@@H]3O[C@H]1C[C@H](N)[C@H](O)[C@H](C)O1 , please.
Result: 3.16

---

- Tested on: Vero
- MEASUREMENT DESCRIPTION: Cytotoxicity against african green monkey Vero cells after 48 hrs by MTT assay
- Type: cell-based
- CONDITION INFO: Chlorocebus sabaeus
pIC50 by entry:
Scale for pIC50: -log10 of concentration given in mol/L; no unit attached.

COc1ccc(O)c2c1C(=O)C=C(CCC=C(C)C)C2=O ... 6.01
CC(C)=CC[C@H](O)C1=CC(=O)c2c(O)ccc(O)c2C1=O [ALKANNIN] ... 6.15
CC(C)=CCCC1=CC(=O)c2c(O)ccc(O)c2C1=O [DEOXYSHIKONIN] ... 6.18
COc1ccc(O)c2c1C(=O)C=C([C@H](CC=C(C)C)OC(=O)C=C(C)C)C2=O ... 6.10

Ask: Recorded pIC50 of CC(=O)O[C@@H](CC=C(C)C)C1=CC(=O)c2c(O)ccc(O)c2C1=O [ACETYLALKANNIN] , please.
Result: 6.12
